studyTarget: Delta-type opioid receptor (Mus musculus, UniProt P32300)
Sequence (P32300 whole entry): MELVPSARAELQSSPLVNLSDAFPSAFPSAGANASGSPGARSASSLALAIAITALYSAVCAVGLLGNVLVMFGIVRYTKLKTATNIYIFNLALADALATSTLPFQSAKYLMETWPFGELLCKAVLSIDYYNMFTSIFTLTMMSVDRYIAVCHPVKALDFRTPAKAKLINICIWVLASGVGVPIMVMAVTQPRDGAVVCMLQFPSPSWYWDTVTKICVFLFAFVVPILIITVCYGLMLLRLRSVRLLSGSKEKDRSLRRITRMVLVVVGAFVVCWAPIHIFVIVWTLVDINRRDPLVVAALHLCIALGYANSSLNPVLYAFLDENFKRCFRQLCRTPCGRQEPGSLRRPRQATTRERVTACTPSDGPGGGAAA
protocolDescription: Antagonist activity at mouse delta opioid receptor-1 expressed in CHO cell membranes assessed as inhibition of DPDPE-induced [35S]GTPgammaS binding incubated for 60 mins by scintillation spectroscopic analysis
Assign labels as follows, please: Fulfilled for IC50 below 70 nM; Not fulfilled for IC50 equal to or exceeding 70 nM.

Use these answered entries as a reference point.
INSERT INTO results (smilesinput, labelclass) VALUES
  ('CC[C@@H]1CN2CC[C@]3(Nc4cccc(O)c4C3=O)[C@@H]2C[C@@H]1/C(=C\OC)C(=O)OC', 'Not fulfilled'),
  ('CC[C@@H]1CN2CC[C@]3(Nc4cccc(C#N)c4C3=O)[C@@H]2C[C@@H]1/C(=C\OC)C(=O)OC', 'Not fulfilled'),
  ('CC[C@@H]1CN2CC[C@]3(Nc4cccc(OC)c4C3=O)[C@@H]2C[C@@H]1/C(=C\OC)C(=O)OC', 'Fulfilled'),
  ('CC[C@@H]1CN2CC[C@]3(Nc4cccc(-c5ccoc5)c4C3=O)[C@@H]2C[C@@H]1/C(=C\OC)C(=O)OC', 'Fulfilled');

In plain terms, does CC[C@@H]1CN2CC[C@]3(Nc4ccccc4C3=O)[C@@H]2C[C@@H]1/C(=C\OC)C(=O)OC come in under 70 nM for IC50? Not fulfilled

====

Would you mind telling me the reported Emax of each entry?
studyTarget: Mu-type opioid receptor (Mus musculus)
protocolDescription: Agonist activity at mouse mu opioid receptor-1 expressed in CHO cell membranes assessed as [35S]GTPgammaS binding incubated for 60 mins by scintillation spectroscopic analysis relative to DAMGO
Format: functional
Answers are plain numbers, in %.

For every listed record, write down its Emax.
1. CC[C@@H]1CN2CC[C@]3(Nc4cccc(O)c4C3=O)[C@@H]2C[C@@H]1/C(=C\OC)C(=O)OC
2. CC[C@@H]1CN2CC[C@]3(Nc4cccc(OC(C)=O)c4C3=O)[C@@H]2C[C@@H]1/C(=C\OC)C(=O)OC
3. CC[C@@H]1CN2CC[C@@]3(O)C(=Nc4cccc(OC)c43)[C@@H]2C[C@@H]1/C(=C\OC)C(=O)OC
4. CC[C@@H]1CN2CC[C@]3(Nc4cccc(-c5ccccc5)c4C3=O)[C@@H]2C[C@@H]1/C(=C\OC)C(=O)OC

[124, 120, 77, 123]

====

studyTarget: Delta-type opioid receptor (Mus musculus)
protocolDescription: Agonist activity at mouse delta opioid receptor-1 expressed in CHO cell membranes assessed as [35S]GTPgammaS binding incubated for 60 mins by scintillation spectroscopic analysis
attributeMeasured: pEC50
One number for each entry, as −log10 of the molar value.

What does the data say about its pEC50? Entry: CC[C@@H]1CN2CC[C@]3(Nc4cccc(-c5ccccc5)c4C3=O)[C@@H]2C[C@@H]1/C(=C\OC)C(=O)OC 9.08

====

studyTarget: Kappa-type opioid receptor (Mus musculus)
Sequence (P33534 whole entry): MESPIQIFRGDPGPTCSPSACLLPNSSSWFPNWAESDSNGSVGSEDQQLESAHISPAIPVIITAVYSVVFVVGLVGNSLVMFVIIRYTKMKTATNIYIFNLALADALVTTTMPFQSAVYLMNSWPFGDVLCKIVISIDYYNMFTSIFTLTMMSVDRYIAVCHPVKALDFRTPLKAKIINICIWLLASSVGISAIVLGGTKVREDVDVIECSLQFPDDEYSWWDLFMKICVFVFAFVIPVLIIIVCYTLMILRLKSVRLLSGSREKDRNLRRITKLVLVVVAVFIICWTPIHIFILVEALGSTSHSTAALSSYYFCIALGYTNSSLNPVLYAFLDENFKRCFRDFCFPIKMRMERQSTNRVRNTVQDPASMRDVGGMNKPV
protocolDescription: Antagonist activity at mouse kappa opioid receptor-1 expressed in CHO cell membranes assessed as inhibition of U50,488H-induced [35S]GTPgammaS binding incubated for 60 mins by scintillation spectroscopic analysis
attributeMeasured: IC50 (nM)
Give bare numbers, in nM.

Past entries and their recorded results:
INSERT INTO assay_data (smilesinput, reportedresult) VALUES
  ('CC[C@@H]1CN2CC[C@]3(Nc4cccc(-c5ccoc5)c4C3=O)[C@@H]2C[C@@H]1/C(=C\OC)C(=O)OC', 202),
  ('CC[C@@H]1CN2CC[C@]3(Nc4cccc(C#N)c4C3=O)[C@@H]2C[C@@H]1/C(=C\OC)C(=O)OC', 721),
  ('CC[C@@H]1CN2CC[C@]3(Nc4cccc(-c5ccccc5)c4C3=O)[C@@H]2C[C@@H]1/C(=C\OC)C(=O)OC', 171),
  ('CC[C@@H]1CN2CC[C@]3(Nc4cccc(OC)c4C3=O)[C@@H]2C[C@@H]1/C(=C\OC)C(=O)OC', 31),
  ('CC[C@@H]1CN2CC[C@]3(Nc4ccccc4C3=O)[C@@H]2C[C@@H]1/C(=C\OC)C(=O)OC', 252);

What does the data say about its IC50? Entry: CC[C@@H]1CN2CC[C@@]3(O)C(=Nc4cccc(OC)c43)[C@@H]2C[C@@H]1/C(=C\OC)C(=O)OC 2520
